target: UniProt O15264; details: read-out: MAPK13 IC50
Sequence (O15264 whole entry): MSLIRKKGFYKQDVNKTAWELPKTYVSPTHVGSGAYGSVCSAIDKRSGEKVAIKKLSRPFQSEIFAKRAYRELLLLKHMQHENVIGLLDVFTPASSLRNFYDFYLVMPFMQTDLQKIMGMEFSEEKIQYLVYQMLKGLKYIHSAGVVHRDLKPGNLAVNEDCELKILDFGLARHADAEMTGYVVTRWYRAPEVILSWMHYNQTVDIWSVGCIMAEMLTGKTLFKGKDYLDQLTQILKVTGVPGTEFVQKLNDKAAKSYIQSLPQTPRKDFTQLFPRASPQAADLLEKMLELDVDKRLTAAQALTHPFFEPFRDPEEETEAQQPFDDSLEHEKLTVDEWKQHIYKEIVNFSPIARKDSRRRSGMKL
For each record, write down the corresponding pIC50.
By convention, pIC50 is the negative base-10 log of a molar concentration.

Input CC(=O)Nc1cc(Oc2ccc(NC(=O)Nc3cc(C(C)(C)C)on3)c(F)c2)ccn1 . Output pIC50: 8.05

Input CC(=O)Nc1cc(Oc2ccc(NC(=O)Nc3cc(C(C)(C)C)no3)c(F)c2)ccn1 . Output pIC50: 7.96

Input Cc1ccc(-n2nc(C(C)(C)C)cc2NC(=O)Nc2ncc(CCc3ccnc(NC(=O)C4CC4)c3)s2)cc1 . Output pIC50: 7.96

Input Cc1ccc(-n2nc(C(C)(C)C)cc2NC(=O)Nc2ncc(CCc3ccnc(NC(=O)C4CCC4)c3)s2)cc1 . Output pIC50: 7.74

src = patent US11407771B2
